# credit: patent US9302999B2

Tested on: ragweed (common ragweed, Ambrosia elation)
RUN_DESCRIPTION: Test C pre-/postemergence: ragweed
Format: in vivo
CONDITION: Postemergence, 62 g ai/ha; scale 0 to 100 (0 no effect, 100 complete control)
Catalogue of Plant response rating, Ragweed readings, one per entry.
MEASURE_NAME: Plant response rating, Ragweed

> print(dat)
                            molecule.smiles                    measure.name  measured.value
1  Cc1nn(-c2ccc(C(F)(F)F)cn2)nc1Cc1cccc(C(F)(F)F)c1  Plant response rating, Ragweed              55
2  CCc1nn(-c2ccc(C(F)(F)F)cc2)nc1Oc1ccnc(C(F)(F)F)c1  Plant response rating, Ragweed              60
3  CCCc1nn(-c2ccc(C(F)(F)F)cc2)nc1Oc1ccnc(C(F)(F)F)c1  Plant response rating, Ragweed              85
4  Cc1nn(-c2ccc(C(F)(F)F)cc2)nc1Oc1ccnc(C(F)(F)F)c1  Plant response rating, Ragweed              60

====

Tested on: crabgrass, large (large crabgrass, Digitaria sanguinalis)
RUN_DESCRIPTION: Test A pre-/postemergence: crabgrass, large
Type: in vivo
CONDITION: Postemergence, 125 g ai/ha; 0 to 100 scale, 0 is no effect, 100 is complete control
MEASURE_NAME: Crabgrass, Large plant response rating

> print(dat)
                                   compound  measured.value
1  CSc1nn(-c2ccc(F)cc2)nc1Cc1ccnc(C(F)(F)F)c1              30
2  Cc1nn(-c2ccc(C(F)F)cn2)nc1C(=O)c1cccc(C(F)(F)F)c1              10
3  Cc1nn(-c2ccc(C(F)(F)F)cc2)nc1Oc1cc(C(F)(F)F)nn1C              50
4  COc1cc(Cc2nn(-c3ccc(C(F)(F)F)cc3)nc2C)ccn1              10
5  Cc1nn(-c2ccc(F)c(F)c2)nc1Cc1ccnc(C(F)(F)F)c1              80
6  Cc1nn(-c2cccc(C(F)(F)F)c2)nc1Oc1cc(C(F)(F)F)nn1C               0
7  COc1nn(-c2ccc(C(F)(F)F)cc2)nc1C(F)c1ccnc(C(F)(F)F)c1 (stereo not drawn)              40
8  Cc1nn(-c2ccc(F)cc2)nc1Oc1cc(C(F)(F)F)nn1C              90
9  COc1nn(-c2cccc(F)c2)nc1Cc1ccnc(C(F)(F)F)c1              90

====

Test system: corn (Zea mays)
RUN_DESCRIPTION: Test C pre-/postemergence: corn
Type: in vivo
CONDITION: Preemergence, 31 g ai/ha; scale of 0 to 100, 0 is no effect, 100 is complete control
MEASURE_NAME: Plant response rating, Corn

> print(dat)
                            molecule.smiles    tested.system  measured.value
1  FCc1nn(-c2ccc(F)cc2)nc1Oc1ccnc(C(F)(F)F)c1  corn (Zea mays)               5
2  Cc1nn(-c2ccc(C(F)(F)F)cc2)nc1Oc1ccnc(C(F)(F)F)c1  corn (Zea mays)               0
3  COc1nn(-c2ccc(C(F)(F)F)cc2)nc1Cc1ccnc(C(F)F)c1  corn (Zea mays)              20
4  Cc1nn(-c2ccc(C(F)(F)F)cn2)nc1Oc1ccnc(C(F)(F)F)c1  corn (Zea mays)               5
5  COc1nn(-c2cccc(F)c2)nc1Cc1ccnc(C(F)(F)F)c1  corn (Zea mays)               0
6  CCc1nn(-c2ccc(C(F)(F)F)cc2)nc1Cc1ccnc(C(F)(F)F)c1  corn (Zea mays)               5
7  FC(F)(F)COc1nn(-c2ccc(C(F)(F)F)cc2)nc1Cc1ccnc(C(F)(F)F)c1  corn (Zea mays)               0

====

Test system: dayflower, VA (Virginia (VA) dayflower, Commelina virginica)
RUN_DESCRIPTION: Test F pre-/postemergence: dayflower, VA
Format: in vivo
CONDITION: Postemergence; 125 g ai/ha; scale 0 to 100
MEASURE_NAME: Plant response rating, Dayflower, VA

> print(dat)
                            molecule.smiles  measured.value
1  CCc1nn(-c2ccc(C(F)(F)F)cc2)nc1Oc1ccnc(C(F)(F)F)c1              10
2  Cc1nn(-c2ccnc(Cl)c2)nc1Cc1ccnc(C(F)(F)F)c1              75
3  CCCc1nn(-c2ccc(F)c(F)c2)nc1Oc1ccnc(C(F)(F)F)c1              30
4  CCOc1nn(-c2ccc(F)cc2)nc1Cc1ccnc(C(F)(F)F)c1              70

====

Tested on: bermudagrass (Cynodon dactylon)
RUN_DESCRIPTION: Test C pre-/postemergence: bermudagrass
Format: in vivo
CONDITION: Postemergence, 250 g ai/ha; scale 0 to 100
API: label(entry) gives true (1) if the entry's Plant response rating, Bermudagrass is strictly smaller than 30; on equality or larger values it gives false (0).

> print(dat)
                            molecule.smiles                    tested.system      label
1  Cc1nn(-c2ccc(C(F)(F)F)cc2)nc1Oc1ccnc(C(F)(F)F)c1  bermudagrass (Cynodon dactylon)   true (1)
2  COc1nn(-c2cccc(F)c2)nc1Cc1ccnc(C(F)(F)F)c1  bermudagrass (Cynodon dactylon)  false (0)
3  FC(F)(F)COc1nn(-c2ccc(C(F)(F)F)cc2)nc1Cc1ccnc(C(F)(F)F)c1  bermudagrass (Cynodon dactylon)  false (0)
4  Cc1nn(-c2ccc(C(F)(F)F)c(F)c2)nc1Oc1ccnc(C(F)(F)F)c1  bermudagrass (Cynodon dactylon)  false (0)

====

Tested on: ragweed (common ragweed, Ambrosia elation)
RUN_DESCRIPTION: Test C pre-/postemergence: ragweed
Type: in vivo
CONDITION: Preemergence, 250 g ai/ha; scale 0 to 100, 0 no effect, 100 complete control
The entries below come with measured Plant response rating, Ragweed values attached.
MEASURE_NAME: Plant response rating, Ragweed

> print(dat)
                            molecule.smiles                    measure.name  measured.value
1  Cc1nn(-c2ccc(C(F)(F)F)cn2)nc1Oc1ccnc(C(F)(F)F)c1  Plant response rating, Ragweed              60
2  CCOc1nn(-c2ccc(F)cc2)nc1Cc1ccnc(C(F)(F)F)c1  Plant response rating, Ragweed              90
3  COc1nn(-c2ccc(C(F)(F)F)cc2)nc1Cc1ccnc(C(F)F)c1  Plant response rating, Ragweed              50
4  Cc1nn(-c2ccc(F)c(C(F)(F)F)c2)nc1Cc1ccnc(C(F)(F)F)c1  Plant response rating, Ragweed              60

====

System: ryegrass, Italian (Italian ryegrass, Lolium multiflorum)
RUN_DESCRIPTION: Test C pre-/postemergence: ryegrass, Italian
Type: in vivo
CONDITION: Postemergence, 31 g ai/ha; scale 0 to 100 (0 no effect, 100 complete control)
MEASURE_NAME: Plant response rating, Ryegrass, Italian

> print(dat)
                                    compound                              measure.name  measured.value
 1  FC(F)(F)c1ccc(-n2nc(Cl)c(Cc3ccnc(C(F)(F)F)c3)n2)cc1 [Compound 28]  Plant response rating, Ryegrass, Italian              10
 2  CCc1nn(-c2ccc(F)c(F)c2)nc1Oc1ccnc(C(F)(F)F)c1 [Compound 171]  Plant response rating, Ryegrass, Italian               5
 3  CCc1nn(-c2ccc(F)cc2)nc1Cc1ccnc(C(F)(F)F)c1 [Compound 154]  Plant response rating, Ryegrass, Italian               5
 4  COc1nn(-c2cccc(F)c2)nc1Cc1ccnc(C(F)(F)F)c1 [Compound 139]  Plant response rating, Ryegrass, Italian              25
 5  COc1nn(-c2ccc(C(F)(F)F)cc2)nc1Cc1ccnc(C(F)(F)F)c1 [Compound 15]  Plant response rating, Ryegrass, Italian              30
 6  CCCc1nn(-c2ccc(F)c(F)c2)nc1Oc1ccnc(C(F)(F)F)c1 [Compound 172]  Plant response rating, Ryegrass, Italian              10
 7  CCc1nn(-c2ccc(C(F)(F)F)c(F)c2)nc1Oc1ccnc(C(F)(F)F)c1 [Compound 183]  Plant response rating, Ryegrass, Italian              10
 8  COc1nn(-c2ccc(C(F)(F)F)cc2)nc1Cc1ccnc(C(F)F)c1 [Compound 138]  Plant response rating, Ryegrass, Italian              40
 9  Cc1nn(-c2ccc(C(F)(F)F)cn2)nc1Cc1cccc(C(F)(F)F)c1 [Compound 106]  Plant response rating, Ryegrass, Italian               5
10  CCc1nn(-c2ccc(C(F)(F)F)cc2)nc1Oc1ccnc(C(F)(F)F)c1 [Compound 169]  Plant response rating, Ryegrass, Italian              10
11  Fc1ccc(-n2nc(Cc3ccnc(C(F)(F)F)c3)c(OC(F)F)n2)cc1 [Compound 25]  Plant response rating, Ryegrass, Italian               5
